Source listed as ChEMBL document CHEMBL4138264.

Test system: MCF7
methodNotes: Cytotoxicity against human MCF7 cells assessed as reduction in cell viability after 48 hrs by MTS assay
Assay type: functional, cell-based
measurementContext: MCF7, 48 h
pIC50: −log10 of the molar value.
# key: entry, value: pIC50

Solved cases (2 shown):
| querySmiles | assayResult |
| --- | --- |
| COc1ccc(CCc2cc(O)c(-c3c(OC)cc([C@@H]4OO[C@H]4CO)cc3OC)c(OC)c2)cc1 | 5.33 |
| CC(C)[C@@H]1[C@@H]([C@@H]2CC[C@@H]3CN(C)C(=O)[C@@]32C)C(=O)O[C@H]1O | < 4.40 |

Task item: Record request: pIC50 value, item `CC(C)[C@@H]1[C@H]2OC(=O)[C@@H]1[C@@H]1CC[C@@H]3CN(C)[C@H]2[C@@]31C`
Reply: < 4.40

Task item: Cool, now `CC(C)C1=C(O)C(=O)[C@@]2(C)[C@@H]3CC[C@H]2[C@H]1C(=O)NC3`
Reply: < 4.40

Task item: Cool, now `CC(C)C1=C(O)C(=O)[C@@]2(C)[C@@H]3CC[C@H]2[C@H]1C(=O)N(C)C3`
Reply: < 4.40

Task item: Cool, now `CC(C)[C@H]1[C@@H]2C(=O)O[C@H]1[C@@]1(O)N(C)C[C@H]3CC[C@@H]2[C@]31C`
Reply: < 4.40

Task item: Cool, now `COc1ccc(CCc2cc(OC)c3c(c2)O[C@@H](c2ccc(O)c(OC)c2)[C@H](CO)O3)cc1`
Reply: < 4.40

Task item: Cool, now `COc1cc(CCc2ccc(O)cc2)cc(O)c1-c1c(OC)cc([C@@H]2OO[C@H]2CO)cc1OC`
Reply: 4.71
